Test system: U2OS
Assay: Multiplex assay against U2OS
Format: toxicity, cell-based
Conditions: human, 24 h, 10 µM, compound concentration 10 uM, replicate 2

| compound | Population Fragmented Nuclei (%) |
| --- | --- |
| Cc1ccc(S(=O)(=O)NC2c3ccccc3Oc3ccccc32)cc1 | 10 |
| C[C@@H](Oc1cc(-n2cnc3ccc(CN4CCN(C)CC4)cc32)sc1C(N)=O)c1ccccc1C(F)(F)F | 10 |
| CCCCN(CC)c1nc(C)nc2c1c(C)cn2-c1c(C)cc(C)cc1C.Cl | 8 |
| CCOC(=O)CCNc1cc(N2CCc3ccccc3CC2)nc(-c2ccccn2)n1 | 4 |
| c1ccc(-c2oc3ncnc(NC[C@@H]4CCCO4)c3c2-c2ccccc2)cc1 | 14 |
| Cl.NC[C@@H]1O[C@H](C23CC4CC(CC(C4)C2)C3)Cc2c1ccc(O)c2O | 50 |
| Cc1c(Nc2ccc(S(=O)(=O)N3CCN(C)CC3)cc2F)nc2ccc(Nc3cnn(C4CC4)c3)cn2c1=O | 5 |
| CC(/C=C1\SC(=S)N(CCCC(=O)Nc2ccc(C(=O)O)c(O)c2)C1=O)=C\c1ccccc1 | 9 |
| N#Cc1cccc(C(=O)Nc2cc(-c3ccccc3)nn2-c2ccccc2)c1 | 9 |
| Cl.Cn1c2c(c3ccc(Cl)c(Cl)c31)C(C#N)C1(CCNCC1)NC2=O (stereo not given) | 33 |

====

Tested on: Fibroblast
Assay: Multiplex assay against human fibroblast
Type: toxicity, cell-based
Settings: 12 h, 10 µM, compound concentration 10 uM, replicate 1
The label yes (1) is reserved for Population Mitotic Cells (%) strictly under 30%; no (0) covers values equal to or above it.

| compound | assignedCategory |
| --- | --- |
| CC(C)[C@H](CO)Nc1nc(Nc2cccc(Cl)c2)c2ncn(C(C)C)c2n1 [PURVALANOLA] | no (0) |
| Cc1c(Nc2ccc(S(=O)(=O)N3CCN(C)CC3)cc2F)nc2ccc(Nc3cnn(C4CC4)c3)cn2c1=O | yes (1) |
| CC(C)C[C@H](NC(=O)[C@H](Cc1ccccc1)NC(=O)CNC(=O)CNC(=O)[C@@H](N)Cc1ccc(O)cc1)C(=O)O [ENKEPHALIN] | yes (1) |
| CCCCCNC(=N)N/N=C/c1c[nH]c2ccc(OC)cc12.O=C(O)/C=C\C(=O)O [TEGASEROD MALEATE] | no (0) |
| CN1C(=O)[C@@H](NC(=O)c2cc3ccccc3[nH]2)N=C(c2ccccc2)c2ccccc21 [DEVAZEPIDE] | no (0) |
| c1ccc(-c2oc3ncnc(NC[C@@H]4CCCO4)c3c2-c2ccccc2)cc1 | no (0) |
| CC(/C=C1\SC(=S)N(CCCC(=O)Nc2ccc(C(=O)O)c(O)c2)C1=O)=C\c1ccccc1 | no (0) |
| CCOc1ccn(-c2ccc(F)cc2)c(=O)c1C(=O)Nc1ccc(Oc2ccnc(N)c2Cl)c(F)c1 [BMS-777607] | yes (1) |
| Cl.NC[C@@H]1O[C@H](C23CC4CC(CC(C4)C2)C3)Cc2c1ccc(O)c2O | no (0) |
| Oc1cccc(-c2nc(N3CCOCC3)c3oc4ncccc4c3n2)c1 [PI-103] | yes (1) |
| CC[C@@H]1C(=O)N(C)c2cnc(Nc3ccc(C(=O)NC4CCN(C)CC4)cc3OC)nc2N1C1CCCC1 [BI-2536] | yes (1) |
| CCCCN(CC)c1nc(C)nc2c1c(C)cn2-c1c(C)cc(C)cc1C.Cl | no (0) |
| Cl.Cn1c2c(c3ccc(Cl)c(Cl)c31)C(C#N)C1(CCNCC1)NC2=O (stereo not given) | no (0) |
| N#CCNC(=O)c1ccc(-c2ccnc(Nc3ccc(N4CCOCC4)cc3)n2)cc1 [MOMELOTINIB] | no (0) |
